Each entry below carries its recorded AUC at 24 h.
assay: AUC in male Wistar Han rats at 10 mg/kg, po administered post overnight fasting measured upto 24 hrs by LC-MS/MS analysis; format: ADME, organism-based; set-up: route oral, dose 10 mg/kg, time <=24; settings: rat, in vivo
Field: numeric (µM·h). Do not append units.

Examples from the recorded data:
{"columns": ["Compound", "Readout Kind", "Unit Abbreviation", "Quantitative Result"],
 "data": [
  ["COC(=O)N[C@H](C(=O)N1CCC[C@H]1c1ncc(-c2cc(F)c3c(c2)OC(c2ccc4c(c2)OC(C)(C)C4)n2c-3cc3cc(-c4cnc([C@@H]5CCCN5C(=O)[C@@H](NC(=O)OC)C(C)C)[nH]4)ccc32)[nH]1)C(C)C.O=C(O)C(F)(F)F.O=C(O)C(F)(F)F (stereo partly drawn)", "AUC at 24 h", "µM·h", 0.71],
  ["COC(=O)N[C@H](C(=O)N1CCC[C@H]1c1ncc(-c2cc(F)c3c(c2)OC(c2ccc4c(c2)OCCC4)n2c-3cc3cc(-c4cnc([C@@H]5CCCN5C(=O)[C@@H](NC(=O)OC)C(C)C)[nH]4)ccc32)[nH]1)C(C)C.O=C(O)C(F)(F)F.O=C(O)C(F)(F)F (stereo partly drawn)", "AUC at 24 h", "µM·h", 1.35]
]}

Here's the next entry for you.
Could you please provide reported AUC at 24 h for COC(=O)N[C@H](C(=O)N1CCC[C@H]1c1ncc(-c2cc(F)c3c(c2)OC(c2ccc4c(c2)OCCC42CC2)n2c-3cc3cc(-c4cnc([C@@H]5CCCN5C(=O)[C@@H](NC(=O)OC)C(C)C)[nH]4)ccc32)[nH]1)C(C)C.O=C(O)C(F)(F)F.O=C(O)C(F)(F)F (stereo partly drawn) ? Thanks! 0.24
